Where these numbers come from: patent US7319098B2

Parameter: inhibition at 100 µM. Scope: all listed entries.
target: α1G T-type Ca2+ channels (Homo sapiens, UniProt O43497); construct: expressed in transfected cells; host or cells: HEK293 cells stably expressing α1G and Kir2.1; experiment: Screening of activity against T-type calcium channel with FDSS6000 (fluorescence, KCl-induced [Ca2+]i increase); format: cell-based; settings: 100 μM; HEK293 cells expressing α1G and Kir2.1; read-out: Inhibitory effect (%) of T-type calcium channel, Inhibition (%)
Sequence (O43497 whole entry): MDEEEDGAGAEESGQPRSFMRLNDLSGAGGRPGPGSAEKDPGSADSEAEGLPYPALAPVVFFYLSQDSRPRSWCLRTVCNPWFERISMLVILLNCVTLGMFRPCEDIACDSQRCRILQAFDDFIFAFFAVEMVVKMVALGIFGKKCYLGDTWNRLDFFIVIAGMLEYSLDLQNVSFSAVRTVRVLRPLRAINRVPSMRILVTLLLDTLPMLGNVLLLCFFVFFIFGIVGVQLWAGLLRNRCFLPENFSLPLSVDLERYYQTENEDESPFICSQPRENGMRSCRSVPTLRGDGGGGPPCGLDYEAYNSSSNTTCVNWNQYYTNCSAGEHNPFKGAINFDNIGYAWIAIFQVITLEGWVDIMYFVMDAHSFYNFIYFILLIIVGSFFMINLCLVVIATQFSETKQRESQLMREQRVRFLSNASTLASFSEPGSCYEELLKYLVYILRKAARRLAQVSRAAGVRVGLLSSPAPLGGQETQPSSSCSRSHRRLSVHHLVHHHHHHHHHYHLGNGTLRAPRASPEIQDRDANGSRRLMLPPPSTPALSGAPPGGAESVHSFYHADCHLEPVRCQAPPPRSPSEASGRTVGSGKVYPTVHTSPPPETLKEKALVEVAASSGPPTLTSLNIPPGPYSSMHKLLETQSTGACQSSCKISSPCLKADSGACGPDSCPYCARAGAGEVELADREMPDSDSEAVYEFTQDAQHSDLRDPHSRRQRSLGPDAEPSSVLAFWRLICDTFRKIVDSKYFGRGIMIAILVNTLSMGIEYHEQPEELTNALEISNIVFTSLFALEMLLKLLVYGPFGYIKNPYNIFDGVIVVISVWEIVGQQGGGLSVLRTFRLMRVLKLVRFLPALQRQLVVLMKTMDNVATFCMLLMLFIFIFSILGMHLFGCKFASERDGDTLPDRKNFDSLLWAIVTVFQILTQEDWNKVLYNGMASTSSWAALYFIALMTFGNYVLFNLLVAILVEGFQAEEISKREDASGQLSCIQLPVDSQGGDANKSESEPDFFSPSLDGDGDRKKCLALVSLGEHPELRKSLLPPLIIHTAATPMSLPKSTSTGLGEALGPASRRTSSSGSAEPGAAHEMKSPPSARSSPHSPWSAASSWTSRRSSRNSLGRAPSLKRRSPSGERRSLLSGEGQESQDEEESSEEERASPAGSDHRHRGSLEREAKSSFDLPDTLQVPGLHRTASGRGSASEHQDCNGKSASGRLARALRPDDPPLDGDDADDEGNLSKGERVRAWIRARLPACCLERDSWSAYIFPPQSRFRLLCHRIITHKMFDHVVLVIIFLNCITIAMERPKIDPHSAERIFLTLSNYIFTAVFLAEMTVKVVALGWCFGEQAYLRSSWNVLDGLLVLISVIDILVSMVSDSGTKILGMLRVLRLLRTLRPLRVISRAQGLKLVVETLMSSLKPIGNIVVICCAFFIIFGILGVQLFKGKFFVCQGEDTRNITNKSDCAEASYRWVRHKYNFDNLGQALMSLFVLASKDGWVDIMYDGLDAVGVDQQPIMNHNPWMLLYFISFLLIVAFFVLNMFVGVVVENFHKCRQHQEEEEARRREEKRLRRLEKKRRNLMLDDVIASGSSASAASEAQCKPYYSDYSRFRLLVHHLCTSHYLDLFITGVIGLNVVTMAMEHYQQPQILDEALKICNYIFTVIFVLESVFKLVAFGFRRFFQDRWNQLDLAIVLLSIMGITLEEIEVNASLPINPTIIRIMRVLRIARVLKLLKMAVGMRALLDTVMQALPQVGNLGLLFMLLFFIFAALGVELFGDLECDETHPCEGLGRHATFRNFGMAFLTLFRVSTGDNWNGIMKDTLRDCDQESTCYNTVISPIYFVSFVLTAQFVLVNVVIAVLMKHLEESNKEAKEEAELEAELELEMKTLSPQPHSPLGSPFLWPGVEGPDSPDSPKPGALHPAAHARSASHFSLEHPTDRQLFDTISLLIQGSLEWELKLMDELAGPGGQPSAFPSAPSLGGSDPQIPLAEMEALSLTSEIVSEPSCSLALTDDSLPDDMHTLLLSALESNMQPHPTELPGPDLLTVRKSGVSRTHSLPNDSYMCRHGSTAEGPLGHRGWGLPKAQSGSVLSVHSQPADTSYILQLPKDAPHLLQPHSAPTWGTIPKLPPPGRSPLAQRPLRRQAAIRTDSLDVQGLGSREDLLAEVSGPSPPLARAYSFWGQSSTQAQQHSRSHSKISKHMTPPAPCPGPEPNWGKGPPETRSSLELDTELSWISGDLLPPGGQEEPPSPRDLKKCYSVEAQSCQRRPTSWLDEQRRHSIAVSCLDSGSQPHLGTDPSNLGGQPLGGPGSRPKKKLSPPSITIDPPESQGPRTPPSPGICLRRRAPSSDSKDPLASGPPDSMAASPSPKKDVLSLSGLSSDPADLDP
Kindly provide the numeric value in % only, without the unit symbol.

Here's what some known entries look like.
molecule	result-number
CC1CCCCN1CCCNC(=O)c1ccc2c(c1)C(=O)N(c1ccccc1)C2=O (stereo not shown)	33.8
O=C(NCCN1CCCCC1)c1ccc2c(c1)C(=O)N(c1ccc(F)cc1)C2=O	45.7
CC1CCCCN1CCCNC(=O)c1ccc2c(c1)C(=O)N(Cc1ccccc1)C2=O (stereo not shown)	69.6
COc1ccccc1CN1C(=O)c2ccc(C(=O)NCCN3CCOCC3)cc2C1=O	51.1
O=C(NCCN1CCOCC1)c1ccc2c(c1)C(=O)N(c1ccc(F)cc1)C2=O	14.5

Notebook entry, α1G T-type Ca2+ channels (Homo sapiens, UniProt O43497) assay: inhibition at 100 µM of `O=C(NCCN1CCCC1)c1ccc2c(c1)C(=O)N(c1cccc(F)c1)C2=O` = ?
25.8

Please provide the recorded inhibition at 100 µM for `COc1cccc(CN2C(=O)c3ccc(C(=O)NCCCN4CCOCC4)cc3C2=O)c1` , tested on α1G T-type Ca2+ channels (Homo sapiens, UniProt O43497).
56.6

Hello, I am looking for reported inhibition at 100 µM with α1G T-type Ca2+ channels (Homo sapiens, UniProt O43497) for `O=C(NCCCN1CCCC1)c1ccc2c(c1)C(=O)N(c1ccccc1F)C2=O` . Could you help?
32.5

Missing value: inhibition at 100 µM, α1G T-type Ca2+ channels (Homo sapiens, UniProt O43497), entry `COc1cccc(CN2C(=O)c3ccc(C(=O)NCCN4CCOCC4)cc3C2=O)c1` . Fill in?
57.6

Param readout = inhibition at 100 µM; param system = α1G T-type Ca2+ channels (Homo sapiens, UniProt O43497); param query = `O=C(NCCCN1CCOCC1)c1ccc2c(c1)C(=O)N(c1ccccc1)C2=O` ; response: value
22.3
